Let's look at some compounds and their measured TGI.
Tested on: MOLT-4 leukemia
Assay: NCI tumour cell line growth inhibition, 48 h

In the examples that follow, each entry is paired with its recorded TGI.
smiles_text: CC1(C)CC(=O)CC(=Nc2ccc([N+](=O)[O-])cc2)C1
test_readout: TGI
result: > 100 µM
--
smiles_text: CC(=O)NC1=N/C(=C\c2ccc(Cl)cc2)C(=O)N1/C=C1\C(=O)Oc2ccccc2C1=O
test_readout: TGI
result: > 100 µM

Challenge: Read the entry `CCOC(=O)c1sc2c(c1OC(=O)c1ccc(OC)cc1)c(=O)n(-c1ccccc1)c(=S)n2-c1ccccc1` and write its reported TGI.
Response given: > 100 µM
